Below, each entry is listed alongside its reported log10(Kd).
# TARGET_ENTITY: 15N-labelled NDM-1 (Klebsiella pneumoniae, UniProt C7C422)
# Construct: made in house
# Sequence (C7C422 29-270 limits assumed): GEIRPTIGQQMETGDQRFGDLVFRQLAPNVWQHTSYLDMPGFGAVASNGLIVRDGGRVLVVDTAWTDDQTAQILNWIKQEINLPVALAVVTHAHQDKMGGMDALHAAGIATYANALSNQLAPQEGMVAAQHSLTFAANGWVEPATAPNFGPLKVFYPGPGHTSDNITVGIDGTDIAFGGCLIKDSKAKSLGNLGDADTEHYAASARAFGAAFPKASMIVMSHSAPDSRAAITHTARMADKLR
# EXPERIMENT_DESCRIPTION: 1H,15N HSQC NMR chemical shift perturbation titration, NDM-1
# Type: binding
# CONDITION_PARAMETERS: Estimated binding constant (Kd), residue 160S, Table S5; per-residue fit, NDM-1 160S
Scale: decimal log of Kd, Kd in mM.

These solved cases illustrate the format of a correct answer.
- COMPOUND: "O=C(Cc1cccs1)NC(C1CCCCN1)P(=O)(O)O (centres unmarked) [Compound 5i-1]"
  REPORTED_METRIC: "log10(Kd)"
  EXPERIMENTAL_VALUE: -0.60
- COMPOUND: "O=C(Cc1cccs1)NC(C1CCCCN1)P(=O)(O)O (centres unmarked) [Compound 5i-2]"
  REPORTED_METRIC: "log10(Kd)"
  EXPERIMENTAL_VALUE: 1.25
- COMPOUND: "O=C(Cc1ccsc1)NC(C1CCCCN1)P(=O)(O)O (centres unmarked) [Compound 5j-1]"
  REPORTED_METRIC: "log10(Kd)"
  EXPERIMENTAL_VALUE: 1.20
- COMPOUND: "O=C(NC(C1CCCCN1)P(=O)(O)O)c1cccs1 (centres unmarked) [Compound 5b-1]"
  REPORTED_METRIC: "log10(Kd)"
  EXPERIMENTAL_VALUE: 0.95

Proceed to the following item.
Q) Name the recorded log10(Kd) of the item O=C(NC(C1CCCCN1)P(=O)(O)O)c1ccsc1 (centres unmarked) [Compound 5c-1] in your answer.
A) 0.73

----------
Recorded pKd by entry
# TARGET_ENTITY: 15N-labelled NDM-1 (Klebsiella pneumoniae, UniProt C7C422)
# Construct: made in house
# EXPERIMENT_DESCRIPTION: 1H,15N HSQC NMR chemical shift perturbation titration, NDM-1
# Assay type: binding
# CONDITION_PARAMETERS: Estimated binding constant (Kd), residue 217S, Table S5; per-residue fit, NDM-1 217S
Reminder that pKd means the negative base-10 logarithm of the concentration expressed in mol/L.

In the examples that follow, each entry is paired with its recorded pKd.
- MOLECULE: "O=C(NC(C1CCCCN1)P(=O)(O)O)c1cccs1 (centres unmarked)"
  TARGET_ENTITY: "15N-labelled NDM-1 (Klebsiella pneumoniae, UniProt C7C422)"
  EXPERIMENTAL_VALUE: 1.98
- MOLECULE: "O=C(Cc1ccsc1)NC(C1CCCCN1)P(=O)(O)O (centres unmarked)"
  TARGET_ENTITY: "15N-labelled NDM-1 (Klebsiella pneumoniae, UniProt C7C422)"
  EXPERIMENTAL_VALUE: 2.09
- MOLECULE: "O=C(Cc1cccs1)NC(C1CCCCN1)P(=O)(O)O (centres unmarked) [Compound 5i-1]"
  TARGET_ENTITY: "15N-labelled NDM-1 (Klebsiella pneumoniae, UniProt C7C422)"
  EXPERIMENTAL_VALUE: 2.51
- MOLECULE: "O=C(NC(C1CCCCN1)P(=O)(O)O)c1ccsc1 (centres unmarked)"
  TARGET_ENTITY: "15N-labelled NDM-1 (Klebsiella pneumoniae, UniProt C7C422)"
  EXPERIMENTAL_VALUE: 1.93

Q) Query pKd for O=C(Cc1cccs1)NC(C1CCCCN1)P(=O)(O)O (centres unmarked) [Compound 5i-2]
A) 1.78

Attribution: paper PMC10650955
